System: T1, huCLL1-K244-Avi-Tev-His (human, UniProt Q5QGZ9 65-265)
T1 construct: extracellular domain
T1 sequence (looked up): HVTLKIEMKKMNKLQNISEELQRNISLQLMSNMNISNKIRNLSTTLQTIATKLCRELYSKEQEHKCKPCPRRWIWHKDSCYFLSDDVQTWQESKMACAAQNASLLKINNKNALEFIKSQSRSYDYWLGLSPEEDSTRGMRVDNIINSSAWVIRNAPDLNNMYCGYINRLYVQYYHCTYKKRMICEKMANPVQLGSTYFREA
Procedure Text: BLI
Assay Endpoint: binding result

>>> measurement("Polypeptide No. 181 (scFv, V domains shown, scFv) VH: QVQLVQSGAEVKKPGASVKVSCKASGYTFTGYYMHWVRQAPGQGLEWMGVINPSGGSTSYAQKFQGRVTMTRDTSTSTVYMELSSLRSEDTAVYYCARGRTDDAFDIWGQGTLVTVSS VL: DIQMTQSPSSLSASVGDRVTITCRASQTISSWLAWYQQKPGKAPKLLIYAASTLQSGVPSRFSGSGSGTDFTLTISSLQPEDFATYYCQQSYSIPLTFGGGTKLEIKR")
"binds"

Data provenance: patent US20240101668A1
